tested on: Salmonella typhi; test: Bactericidal activity against Salmonella typhi CECT 409 at 0.2 mg/disk after 24 hrs by paper disk-agar diffusion method; type: functional, Salmonella enterica subsp. enterica serovar Typhi
endpointLabel: inhibition zone (IZ) (mm)
The reply should contain only the number, in mm.

Use these answered entries as a reference point.
{"compound": "CN(C)[C@@H]1C(O)=C(C(N)=O)C(=O)[C@@]2(O)C(O)=C3C(=O)c4c(O)cccc4[C@@](C)(O)[C@H]3C[C@@H]12 [TETRACYCLINE]", "testTarget": "Salmonella typhi", "endpointLabel": "inhibition zone (IZ)", "observedResult": 24.33}
{"compound": "COC(=O)CCCCC1=[N+](C)CCc2cc(OC)c(OC)cc21", "testTarget": "Salmonella typhi", "endpointLabel": "inhibition zone (IZ)", "observedResult": 0}
{"compound": "COc1cc2c(cc1OC)C(CCCCCOC(=O)NCCc1ccccc1)N(C)CC2 (stereo not given)", "testTarget": "Salmonella typhi", "endpointLabel": "inhibition zone (IZ)", "observedResult": 13.5}
{"compound": "CCCCC1c2cc(OC)c(OC)cc2CCN1C (stereo not given)", "testTarget": "Salmonella typhi", "endpointLabel": "inhibition zone (IZ)", "observedResult": 6.25}
{"compound": "COc1cc2c(cc1OC)C(CCCCCOC(=O)Nc1ccccc1)N(C)CC2 (stereo not given)", "testTarget": "Salmonella typhi", "endpointLabel": "inhibition zone (IZ)", "observedResult": 12}
{"compound": "CCCCC1=[N+](C)CCc2cc(OC)c(OC)cc21", "testTarget": "Salmonella typhi", "endpointLabel": "inhibition zone (IZ)", "observedResult": 6.75}
{"compound": "COC(=O)CCCCC1c2cc(OC)c(OC)cc2CCN1C (stereo not given)", "testTarget": "Salmonella typhi", "endpointLabel": "inhibition zone (IZ)", "observedResult": 0}
{"compound": "COc1cc2c(cc1OC)C(CCCCCOC(=O)Nc1ccc(Cl)cc1)N(C)CC2 (stereo not given)", "testTarget": "Salmonella typhi", "endpointLabel": "inhibition zone (IZ)", "observedResult": 16.33}
{"compound": "COc1cc2c(cc1OC)C(CCCCCOC(=O)NCCc1ccc(F)cc1)N(C)CC2 (stereo not given)", "testTarget": "Salmonella typhi", "endpointLabel": "inhibition zone (IZ)", "observedResult": 14.83}

Now for another entry.
Input line: Please give the documented inhibition zone (IZ) of COc1cc2c(cc1OC)C(CCCCCOC(=O)c1ccccc1)N(C)CC2 (stereo not given)
Output line: 9.67

###

tested on: Fusarium culmorum; assay: Fungicidal activity against Fusarium culmorum CCM 172 at 0.2 mg/disk after 72 hrs by paper disk-agar diffusion method; type: functional
endpointLabel: inhibition zone (IZ) (mm)
The reply should contain only the number, in mm.

Use these answered entries as a reference point.
{"compound": "COc1ccc(CCNC(=O)OCCCCCC2c3cc(OC)c(OC)cc3CCN2C)cc1 (stereo unspecified)", "unitsLabel": "mm", "observedResult": 0}
{"compound": "COc1cc2c(cc1OC)C(CCCCCOC(=O)NCCc1ccccc1)N(C)CC2 (stereo unspecified)", "unitsLabel": "mm", "observedResult": 0}
{"compound": "COc1cc2c(cc1OC)C(CCCCCOC(=O)c1ccccc1)N(C)CC2 (stereo unspecified)", "unitsLabel": "mm", "observedResult": 7}
{"compound": "COc1cc2c(cc1OC)C(CCCCCOC(=O)Nc1ccc(Cl)cc1)N(C)CC2 (stereo unspecified)", "unitsLabel": "mm", "observedResult": 7.33}
{"compound": "COc1ccc(CCC(=O)OCCCCCC2c3cc(OC)c(OC)cc3CCN2C)cc1 (stereo unspecified)", "unitsLabel": "mm", "observedResult": 6.5}

Now for another entry.
Input line: Please give the documented inhibition zone (IZ) of CCCCC1c2cc(OC)c(OC)cc2CCN1C (stereo unspecified)
Output line: 5.5

###

tested on: Bacillus cereus; experiment: Bactericidal activity against Bacillus cereus CECT 148 at 0.2 mg/disk after 24 hrs by paper disk-agar diffusion method; type: functional
Give rule met when the value for inhibition zone (IZ) is at least 10 mm. Give rule not met when it is less.

Example cases with answers are listed next.
{"compound": "COc1cc2c(cc1OC)C(CCCCCOC(=O)CCc1ccccc1)N(C)CC2 (stereo unspecified)", "discreteLabel": "rule met"}
{"compound": "COc1cc2c(cc1OC)C(CCCCCO)N(C)CC2 (stereo unspecified)", "discreteLabel": "rule not met"}
{"compound": "CN(C)[C@@H]1C(O)=C(C(N)=O)C(=O)[C@@]2(O)C(O)=C3C(=O)c4c(O)cccc4[C@@](C)(O)[C@H]3C[C@@H]12", "discreteLabel": "rule met"}
{"compound": "COc1cc2c(cc1OC)C(CCCCCOC(=O)CCc1ccc(F)cc1)N(C)CC2 (stereo unspecified)", "discreteLabel": "rule met"}
{"compound": "CCCCC1=[N+](C)CCc2cc(OC)c(OC)cc21", "discreteLabel": "rule not met"}

Input line: Could you tell me if the measured inhibition zone (IZ) of COc1cc2c(cc1OC)C(CCCCCOC(=O)c1ccccc1)N(C)CC2 (stereo unspecified) reaches 10 mm or more?
Output line: rule met

###

test system: Escherichia coli; assay: Bactericidal activity against Escherichia coli CECT 405 at 0.2 mg/disk after 24 hrs by paper disk-agar diffusion method relative to control; assay type: functional
endpointLabel: Activity (%)
The reply should contain only the number, in %.

Use these answered entries as a reference point.
{"molecule": "COc1ccc(NC(=O)OCCCCCC2c3cc(OC)c(OC)cc3CCN2C)cc1 (centres undefined)", "unitsLabel": "%", "Activity": 52}
{"molecule": "COc1cc2c(cc1OC)C(CCCCCOC(=O)Nc1ccc(Cl)cc1)N(C)CC2 (centres undefined)", "unitsLabel": "%", "Activity": 68}
{"molecule": "COc1cc2c(cc1OC)C(CCCCCOC(=O)NCCc1ccc(F)cc1)N(C)CC2 (centres undefined)", "unitsLabel": "%", "Activity": 62}

Now for another entry.
Input line: Please give the documented Activity of COc1cc2c(cc1OC)C(CCCCCOC(=O)NCCc1ccc(Cl)cc1)N(C)CC2 (centres undefined)
Output line: 75

###

# inhibition zone (IZ) listing for each entry below
test system: Salmonella typhi; assay: Bactericidal activity against Salmonella typhi CECT 409 at 0.2 mg/disk after 24 hrs by paper disk-agar diffusion method; type: functional, Salmonella enterica subsp. enterica serovar Typhi
The reply should consist of the numeric value with the unit placed after it.

Use these answered entries as a reference point.
{"compound": "COc1ccc(NC(=O)OCCCCCC2c3cc(OC)c(OC)cc3CCN2C)cc1 (configuration not stated)", "observedResult": "11.33 mm"}
{"compound": "COc1cc2c(cc1OC)C(CCCCCOC(=O)c1ccc(F)cc1)N(C)CC2 (configuration not stated)", "observedResult": "14.83 mm"}
{"compound": "COc1cc2c(cc1OC)C(CCCCCOC(=O)CCc1ccc(F)cc1)N(C)CC2 (configuration not stated)", "observedResult": "9.17 mm"}

Now for another entry.
Input line: Please give the documented inhibition zone (IZ) of COc1cc2c(cc1OC)C(CCCCCO)N(C)CC2 (configuration not stated)
Output line: 12.33 mm

###

# inhibition zone (IZ) listing for each entry below
system: Bacillus cereus; assay: Bactericidal activity against Bacillus cereus CECT 148 at 0.2 mg/disk after 24 hrs by paper disk-agar diffusion method; assay type: functional
The reply should contain only the number, in mm.

{"molecule": "COc1ccc(CCNC(=O)OCCCCCC2c3cc(OC)c(OC)cc3CCN2C)cc1 (stereo unspecified)", "observedResult": 12}
{"molecule": "COc1cc2c(cc1OC)C(CCCCCOC(=O)NCCc1ccccc1)N(C)CC2 (stereo unspecified)", "observedResult": 10.17}
{"molecule": "COc1cc2c(cc1OC)C(CCCCCOC(=O)c1ccc(Cl)cc1)N(C)CC2 (stereo unspecified)", "observedResult": 13}

Input line: Please give the documented inhibition zone (IZ) of COc1cc2c(cc1OC)C(CCCCCOC(=O)Nc1ccccc1)N(C)CC2 (stereo unspecified)
Output line: 12.67

Input line: Please give the documented inhibition zone (IZ) of COc1ccc(C(=O)OCCCCCC2c3cc(OC)c(OC)cc3CCN2C)cc1 (stereo unspecified)
Output line: 10.33

Input line: Please give the documented inhibition zone (IZ) of COC(=O)CCCCC1c2cc(OC)c(OC)cc2CCN1C (stereo unspecified)
Output line: 6.33

###

tested on: Fusarium culmorum; test: Fungicidal activity against Fusarium culmorum CCM 172 at 0.2 mg/disk after 72 hrs by paper disk-agar diffusion method; format: functional
endpointLabel: inhibition zone (IZ)

{"compound": "COc1cc2c(cc1OC)C(CCCCCOC(=O)CCc1ccccc1)N(C)CC2 (stereo not given)", "inhibition zone (IZ)": "6.33 mm"}
{"compound": "COc1cc2c(cc1OC)C(CCCCCOC(=O)CCc1ccc(F)cc1)N(C)CC2 (stereo not given)", "inhibition zone (IZ)": "7.67 mm"}
{"compound": "COc1cc2c(cc1OC)C(CCCCCOC(=O)Nc1ccccc1)N(C)CC2 (stereo not given)", "inhibition zone (IZ)": "7 mm"}
{"compound": "COc1cc2c(cc1OC)C(CCCCCOC(=O)NCCc1ccc(Cl)cc1)N(C)CC2 (stereo not given)", "inhibition zone (IZ)": "15 mm"}
{"compound": "COc1cc2c(cc1OC)C(CCCCCOC(=O)CCc1ccc(Cl)cc1)N(C)CC2 (stereo not given)", "inhibition zone (IZ)": "9.5 mm"}

Now for another entry.
Input line: Please give the documented inhibition zone (IZ) of COc1ccc(C(=O)OCCCCCC2c3cc(OC)c(OC)cc3CCN2C)cc1 (stereo not given)
Output line: 5.5 mm
